Target: UniProt:Q9UHI8
Sequence (Q9UHI8 whole entry): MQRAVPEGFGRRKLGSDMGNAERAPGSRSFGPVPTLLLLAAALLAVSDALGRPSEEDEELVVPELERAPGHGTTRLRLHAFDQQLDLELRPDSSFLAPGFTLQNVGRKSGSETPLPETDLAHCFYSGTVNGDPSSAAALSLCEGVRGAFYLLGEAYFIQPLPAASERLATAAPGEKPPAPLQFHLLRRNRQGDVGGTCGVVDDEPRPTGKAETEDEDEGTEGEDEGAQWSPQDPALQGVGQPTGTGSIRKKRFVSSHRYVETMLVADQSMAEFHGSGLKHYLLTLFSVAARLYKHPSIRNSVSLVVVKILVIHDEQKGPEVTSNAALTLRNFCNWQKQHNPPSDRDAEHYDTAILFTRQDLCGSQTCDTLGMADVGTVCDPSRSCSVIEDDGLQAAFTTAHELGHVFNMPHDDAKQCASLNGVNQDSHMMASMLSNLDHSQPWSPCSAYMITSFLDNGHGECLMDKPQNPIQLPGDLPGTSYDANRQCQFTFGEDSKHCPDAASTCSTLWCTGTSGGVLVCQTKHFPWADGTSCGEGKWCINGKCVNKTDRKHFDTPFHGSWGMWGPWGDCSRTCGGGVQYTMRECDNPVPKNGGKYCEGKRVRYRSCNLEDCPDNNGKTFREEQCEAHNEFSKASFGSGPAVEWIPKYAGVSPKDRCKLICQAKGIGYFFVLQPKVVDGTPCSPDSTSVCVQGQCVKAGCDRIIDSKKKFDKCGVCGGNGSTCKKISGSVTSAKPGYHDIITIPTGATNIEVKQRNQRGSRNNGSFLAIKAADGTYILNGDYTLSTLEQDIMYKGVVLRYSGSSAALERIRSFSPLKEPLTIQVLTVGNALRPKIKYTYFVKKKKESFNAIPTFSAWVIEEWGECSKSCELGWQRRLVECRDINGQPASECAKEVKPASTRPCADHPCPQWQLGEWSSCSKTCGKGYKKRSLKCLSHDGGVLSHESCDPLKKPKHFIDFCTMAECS
parameter measured: Ki

Q: Give Ki for the following compound: Cc1cc(COc2ccc(C(=O)N[C@@]3(CC(=O)NO)C[C@@H](C)N[C@@H](C)C3)cc2)c2ccccc2n1
Result: 7.8 µM

====

Target: Disintegrin and metalloproteinase domain-containing protein 33 (Homo sapiens, UniProt Q9BZ11)
Sequence (Q9BZ11 whole entry, the tested form may be a part): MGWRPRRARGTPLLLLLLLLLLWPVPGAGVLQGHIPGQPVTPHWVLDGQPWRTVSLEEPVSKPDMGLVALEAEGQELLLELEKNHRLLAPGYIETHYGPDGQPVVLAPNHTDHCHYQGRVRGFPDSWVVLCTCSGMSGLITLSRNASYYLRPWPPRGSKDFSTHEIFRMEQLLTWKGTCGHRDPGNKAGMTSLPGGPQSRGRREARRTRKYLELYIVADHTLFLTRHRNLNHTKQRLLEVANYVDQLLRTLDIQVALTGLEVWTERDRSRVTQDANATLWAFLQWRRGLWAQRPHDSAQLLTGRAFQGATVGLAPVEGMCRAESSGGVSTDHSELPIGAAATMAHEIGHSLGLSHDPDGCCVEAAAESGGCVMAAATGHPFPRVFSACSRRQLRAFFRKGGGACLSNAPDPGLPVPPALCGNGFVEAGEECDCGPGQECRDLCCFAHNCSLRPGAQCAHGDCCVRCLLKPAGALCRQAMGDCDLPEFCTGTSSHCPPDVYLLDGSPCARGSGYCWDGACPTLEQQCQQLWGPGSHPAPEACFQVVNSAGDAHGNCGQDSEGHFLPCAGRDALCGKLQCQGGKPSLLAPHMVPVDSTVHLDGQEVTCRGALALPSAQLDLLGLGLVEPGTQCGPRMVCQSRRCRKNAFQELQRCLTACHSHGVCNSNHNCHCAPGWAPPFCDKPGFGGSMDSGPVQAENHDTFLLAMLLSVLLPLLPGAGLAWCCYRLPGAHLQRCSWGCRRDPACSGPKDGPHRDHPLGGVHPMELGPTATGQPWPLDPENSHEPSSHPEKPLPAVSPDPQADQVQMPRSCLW
parameter measured: Ki (nM)
Answers are plain numbers, in nM.

Q: Give Ki for the following compound: Cc1cc(COc2ccc([C@]3(C)CCN([C@H](C)C(=O)NO)C3=O)cc2)c2ccccc2n1
Result: 15

====

Biological target: Stromelysin-2 (Homo sapiens, UniProt P09238)
Sequence (P09238 whole entry): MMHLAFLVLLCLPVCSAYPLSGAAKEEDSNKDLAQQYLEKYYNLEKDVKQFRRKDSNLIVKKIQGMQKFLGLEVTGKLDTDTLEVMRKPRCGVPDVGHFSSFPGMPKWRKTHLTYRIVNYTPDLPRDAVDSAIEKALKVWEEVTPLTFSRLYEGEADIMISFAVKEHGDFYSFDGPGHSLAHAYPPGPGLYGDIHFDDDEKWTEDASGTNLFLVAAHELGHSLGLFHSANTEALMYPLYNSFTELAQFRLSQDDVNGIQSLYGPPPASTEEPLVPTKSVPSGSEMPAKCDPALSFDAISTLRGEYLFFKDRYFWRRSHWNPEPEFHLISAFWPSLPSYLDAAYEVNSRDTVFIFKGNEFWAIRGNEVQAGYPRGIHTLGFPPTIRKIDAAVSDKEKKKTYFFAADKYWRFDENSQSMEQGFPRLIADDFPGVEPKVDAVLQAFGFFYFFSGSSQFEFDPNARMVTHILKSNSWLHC
parameter measured: pKi
Answers are plain numbers, as −log10 of the molar value.

Q: # return pKi of Cc1cc(COc2ccc(C(=O)N[C@@]3(CC(=O)NO)C[C@@H](C)N[C@@H](C)C3)cc2)c2ccccc2n1 (system: Stromelysin-2 (Homo sapiens, UniProt P09238))
Result: 5.78
